Test system: Rattus norvegicus
assayDetails: Hypotensive effect in anesthetized Wistar rat arterial pressure model assessed as decrease in heart rate at 0.01 mg/kg administered through femoral vein
Format: functional, organism-based
Set-up: dose 0.01 mg/kg
The source made the active and inactive calls. The calls are words filed in the database; no cut-off is given here.
reportedProperty: Activity

1. CC(C)(c1ccc(O)c(CN2CCSCC2)c1)c1ccc(O)c(CN2CCSCC2)c1 ... Active
2. CC(C)(C)c1ccc(O)c(CN2CCSCC2)c1 ... Active
3. Oc1cc(O)c(CN2CCSCC2)cc1CN1CCSCC1 ... Active
4. Oc1ccc(Cl)cc1CN1CCSCC1 ... Active
